assay: Pharmacokinetic evaluation in beagle dog; format: in vivo; conditions: plasma, iv, i.v. 1 mg/kg
The molecules listed here are annotated with their AUC.
Reported property: AUC (ng·h/mL)

[[record]]
molecule = "COc1cc2nccc(Nc3ccc4scnc4c3)c2cc1P(C)(C)=O"
recorded_measurement = 1640

[[record]]
molecule = "CP(C)(=O)c1cc2c(Nc3ccc4scnc4c3)ccnc2cc1OC(F)(F)F"
recorded_measurement = 3800


---

The compounds listed here are annotated with their Cmax.
test: Pharmacokinetic evaluation in mice; assay type: in vivo; conditions: male, mouse, plasma, po, p.o. 10 mg/kg
Reported property: Cmax (ng/mL)

[[record]]
molecule = "COc1cc2nccc(Nc3ccc4scnc4c3)c2cc1P(C)(C)=O"
recorded_measurement = 9610

[[record]]
molecule = "CP(C)(=O)c1cc2c(Nc3ccc4scnc4c3)ccnc2cc1OC(F)(F)F"
recorded_measurement = 16200

[[record]]
molecule = "CP(C)(=O)c1cc2c(Nc3ccc4scnc4c3)ccnc2cc1OC(F)F"
recorded_measurement = 19200


---

assay: Caco-2 permeability test; assay type: in vitro ADME; conditions: human, Caco-2, pH 7.4; efflux ratio; read-out: Caco-2 Permeability B-A/A-B
The compounds listed here are annotated with their efflux ratio at 90 min.
Reported property: efflux ratio at 90 min

[[record]]
molecule = "CP(C)(=O)c1cc2c(Nc3ccc4scnc4c3)ccnc2cc1-c1cnn(C2CCNCC2)c1"
reported_property = "efflux ratio at 90 min"
qual = ">"
recorded_measurement = 1.93

[[record]]
molecule = "CP(C)(=O)c1cc2c(Nc3ccc4scnc4c3)ccnc2cc1OCCO"
reported_property = "efflux ratio at 90 min"
qual = "="
recorded_measurement = 20.5

[[record]]
molecule = "CC1(COc2cc3nccc(Nc4ccc5scnc5c4)c3cc2P(C)(C)=O)COC1"
reported_property = "efflux ratio at 90 min"
qual = "="
recorded_measurement = 5.92

[[record]]
molecule = "CP(C)(=O)c1cc2c(Nc3ccc4scnc4c3)ccnc2cc1OC1COC1"
reported_property = "efflux ratio at 90 min"
qual = "="
recorded_measurement = 14.4

[[record]]
molecule = "COc1cc2nccc(Nc3ccc4scnc4c3)c2cc1P(C)(C)=O"
reported_property = "efflux ratio at 90 min"
qual = "="
recorded_measurement = 2.18

[[record]]
molecule = "CP(C)(=O)c1cc2c(Nc3ccc4scnc4c3)ccnc2cc1O[C@@H]1CCOC1"
reported_property = "efflux ratio at 90 min"
qual = "="
recorded_measurement = 6.53

[[record]]
molecule = "CP(C)(=O)c1cc2c(Nc3ccc4scnc4c3)ccnc2cc1O[C@H]1CCOC1"
reported_property = "efflux ratio at 90 min"
qual = "="
recorded_measurement = 5.13

[[record]]
molecule = "COCCOc1cc2nccc(Nc3ccc4scnc4c3)c2cc1P(C)(C)=O"
reported_property = "efflux ratio at 90 min"
qual = "="
recorded_measurement = 2.98


---

The compounds listed here are annotated with their half-life.
assay: Pharmacokinetic evaluation in mice; format: in vivo; conditions: male, mouse, plasma, iv, i.v. 2 mg/kg
Reported property: half-life

[[record]]
molecule = "CP(C)(=O)c1cc2c(Nc3ccc4scnc4c3)ccnc2cc1OC(F)(F)F"
recorded_measurement = "2.2 h"

[[record]]
molecule = "COc1cc2nccc(Nc3ccc4scnc4c3)c2cc1P(C)(C)=O"
recorded_measurement = "1.2 h"

[[record]]
molecule = "CP(C)(=O)c1cc2c(Nc3ccc4scnc4c3)ccnc2cc1OC(F)F"
recorded_measurement = "1.6 h"

